assay-explanation: recombinant UMI read abundance after kanamycin selection (control-corrected) (log10(CPM+1)); higher = more efficient recombination; extreme values may be limits of the assay; sequences stand for … in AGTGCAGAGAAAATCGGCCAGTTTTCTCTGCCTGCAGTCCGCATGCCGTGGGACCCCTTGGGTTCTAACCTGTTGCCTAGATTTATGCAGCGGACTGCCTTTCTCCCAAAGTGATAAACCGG…AGGTTGGTTTCACT; site = the 11-nt donor;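 note: IS621 bridge recombinase in Escherichia coli cells against a fixed T5 target plasmid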
Binary call on recombinant UMI read abundance (log10): Y from 0.009 upward, N beneath that.

Some entries whose results are on file:
sequence-input	label-value
AGCCTTTCATGGACCGGTTTTCCCGGTAATCCGTATTTGGC (site AGCCTTTCTGA)	N
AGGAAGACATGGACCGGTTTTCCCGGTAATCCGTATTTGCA (site AGGAATACTTC)	N
TTCCCTTCATGGACCGGTTTTCCCGGTAATCCGTATTTGTA (site TTCCCTTCTTA)	N

Query: API: above_or_equal(metric=recombinant UMI read abundance (log10), cutoff=0.009) for item CATTGAGCATGGACCGGTTTTCCCGGTAATCCGTATTTGTA (site CATTGAGCTTA)
Response: Y

Query: API: above_or_equal(metric=recombinant UMI read abundance (log10), cutoff=0.009) for item GTTCGTACATGGACCGGTTTTCCCGGTAATCCGTATTTGAC (site GTTCGTACTGT)
Response: Y

Query: API: above_or_equal(metric=recombinant UMI read abundance (log10), cutoff=0.009) for item GAATAGACATGGACCGGTTTTCCCGGTAATCCGTATTTGCC (site GTATAGACTGG)
Response: Y

Query: API: above_or_equal(metric=recombinant UMI read abundance (log10), cutoff=0.009) for item TTATGAGCATGGACCGGTTTTCCCGGTAATCCGTATTTGTC (site TTATGAGCTGA)
Response: Y

Query: API: above_or_equal(metric=recombinant UMI read abundance (log10), cutoff=0.009) for item GGTACGGCATGGACCGGTTTTCCCGGTAATCCGTATTTGTT (site GGTACGACTAA)
Response: Y

Query: API: above_or_equal(metric=recombinant UMI read abundance (log10), cutoff=0.009) for item ACAAAGACATGGACCGGTTTTCCCGGTAATCCGTATTTGCA (site AGGAAGACTTG)
Response: Y
